molecular target: Cytochrome P450 2C19 (Homo sapiens) (UniProt P33261); experiment: Cytochrome panel assay with activity outcomes; details: recombinant CYP, pro-luciferin dealkylation, luminescence, p450-cyp2c19; series mostly up to 57.1 µM
Sequence (P33261 whole entry, looked up): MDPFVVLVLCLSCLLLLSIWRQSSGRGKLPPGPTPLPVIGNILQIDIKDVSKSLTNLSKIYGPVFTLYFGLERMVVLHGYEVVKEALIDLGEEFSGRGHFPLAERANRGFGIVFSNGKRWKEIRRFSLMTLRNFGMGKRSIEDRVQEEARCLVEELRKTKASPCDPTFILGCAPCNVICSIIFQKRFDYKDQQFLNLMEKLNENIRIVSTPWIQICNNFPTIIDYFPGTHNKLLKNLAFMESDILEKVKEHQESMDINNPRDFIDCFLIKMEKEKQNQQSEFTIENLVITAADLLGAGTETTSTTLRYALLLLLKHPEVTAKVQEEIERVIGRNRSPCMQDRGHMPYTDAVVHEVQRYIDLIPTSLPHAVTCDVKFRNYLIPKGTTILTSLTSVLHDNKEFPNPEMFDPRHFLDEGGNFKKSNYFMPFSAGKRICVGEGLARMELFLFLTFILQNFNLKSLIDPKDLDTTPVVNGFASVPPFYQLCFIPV
Hit rate of the full screen: of about 16,000 compounds, about 5,800 (36%) were called active. Another 23% or so got no clear call; they are omitted. Calls follow the shape of the dose curve; as a rule, active = well fitted curve in the direction sought with a large enough effect; inconclusive = small, poorly fitted or top-dose-only effect, or effect the other way; inactive = no such curve, though single readings can be large or run the other way. The list shows a part of the results.
Classes used: yes (1) (active), no (0) (inactive)

>>> df
                                   molecule  discrete_label
0  Cc1noc(C)c1C(=O)N1CCC[C@@]2(CCN(C(=O)Nc3ccccc3)C2)C1          no (0)
1           CCN(/C=N/c1sc2c(c1C#N)CCCCC2)CC         yes (1)
2  CN1CCN(c2ncc3nc(CCc4ccccc4)c(=O)n(Cc4ccc(F)cc4)c3n2)CC1          no (0)
3  C=CCn1c(Cc2ccc(OC)cc2)nnc1SCC(=O)c1cccc([N+](=O)[O-])c1         yes (1)
4              N[C@H](C(=O)O)[C@H](O)C(=O)O          no (0)
5  CCOc1cc(C)ccc1OCc1nnc(SCC(=O)c2cccc([N+](=O)[O-])c2)n1C         yes (1)
6  COc1cccc(Cn2c(=O)c(CCc3ccccc3)nc3cnc(N4CCNCC4)nc32)c1         yes (1)
7  COc1cccc(Cn2c(=O)c(-c3cccc(C#N)c3)nc3cnc(N4CCN(C)CC4)nc32)c1          no (0)
8  Cc1cc(=O)[nH]c2c1c(C)nn2C1CCOC(C)(C)C1 (stereo not given)          no (0)
9  CN(CC(=O)Nc1ccc(F)c(F)c1)S(=O)(=O)c1cccc2nsnc12         yes (1)

###

Target: Cytochrome P450 2C19 (Homo sapiens)
Assay: Cytochrome panel assay with activity outcomes
Conditions: recombinant CYP, pro-luciferin dealkylation, luminescence, p450-cyp2c19; series mostly up to 57.1 µM
Description: The P450 gene superfamily is involved in the metabolism and clearance of xenobiotics. This assay used various human CYP P450 isozymes to measure the dealkylation of various pro-luciferin substrates to luciferin. The luciferin is then measured by luminescence after the addition of a luciferase detection reagent. […] Inhibitors and some substrates limit the production of luciferin, and decrease measured luminescence. […] 8, Detection, 1 sec, ViewLux luminescent read […]
Among all 16,000 compounds or so, about 5,800 (36%) were called active. Inconclusive results (about 23%) are left out. The list shows a part of the results.
measured.parameter: AC50

>>> df
                                    compound            result
 0  COc1cccc(/C(O)=C2/C(=O)C(=O)N(Cc3cccnc3)C2c2ccco2)c1 (stereo unspecified)  14.1 µM (active)
 1                Nc1nnc(SCCOc2cccc(Br)c2)s1  3.98 µM (active)
 2  CN1CCN(CC(O)c2ccccc2)CC1 (stereo unspecified)          inactive
 3  O=c1nc2ccccc2c2n1CC(CN1CCN(c3cccc(Cl)c3)CC1)N2 (stereo unspecified)          inactive
 4  COC(=O)[C@@]1(Cc2ccc(F)cc2)[C@H]2c3cc(C(=O)N4CCCC4)n(CCc4c[nH]c5ccccc45)c3C[C@H]2CN1C(=O)c1ccccc1    10 µM (active)
 5  O=P(O)(CCc1ccccc1)C(O)c1ccccc1 (stereo unspecified)          inactive
 6  CC1CCC(C(C)C)C(OCC(O)CN2CCN(Cc3ccccc3)CC2)C1 (stereo unspecified)  3.55 µM (active)
 7  C=CCC(NCc1ccco1)c1ccc(OC)cc1 (stereo unspecified)  5.01 µM (active)
 8  CC1CC(OCC(O)CN2CCN(Cc3ccccc3)CC2)CC(C)(C)C1 (stereo unspecified)          inactive
 9  c1ccc(C(c2ccccc2)N2CC[C@@]3(CCCNC3)C2)cc1          inactive
10  COc1ccc(CC(=O)N2CCN(c3ccc(C4=NNC(=O)CC4C)cc3)CC2)cc1 (stereo unspecified)          inactive
11  COCCN1C(=O)C(=O)/C(=C(/O)c2cccc(OC)c2)C1c1ccco1 (stereo unspecified)          inactive
12  O=C(CSc1nc2ccccc2s1)N1c2ccccc2Sc2ccc(C(F)(F)F)cc21  4.47 µM (active)
13  CCNc1ncc2nc(-c3ccc(F)cc3)c(=O)n(-c3ccccc3)c2n1          inactive
14  O=C(Cc1ccc(-n2c(=O)[nH]c3ccccc3c2=O)cc1)N1CCN(c2cccc(Cl)c2)CC1  8.91 µM (active)
15  O=C(c1ccccc1)c1ccc(OCC(O)CN2CCN(Cc3ccccc3)CC2)cc1 (stereo unspecified)  4.47 µM (active)
16  CCOc1ccc(NC(=O)C(=O)NCC2CCCN2CC)cc1 (stereo unspecified)          inactive
17  O=C(CSc1nc2ccccc2o1)N1c2ccccc2Sc2ccc(Cl)cc21  2.51 µM (active)
18  CC[C@H](C)C(=O)O[C@H]1CCC=C2C=C[C@H](C)[C@H](CC[C@@H]3C[C@H](O)CC(=O)O3)[C@H]21          inactive
19  CCOc1ccc(/C(O)=C2/C(=O)C(=O)N(CCOCCO)C2c2cccnc2)cc1 (stereo unspecified)          inactive
20  COc1ccc(OCc2nnc(SCC(=O)N3c4ccccc4Sc4ccc(Cl)cc43)o2)cc1  6.31 µM (active)
